TARGET_UNDER_TEST: Progesterone receptor (Rattus norvegicus) (UniProt Q63449)
Sequence (whole entry): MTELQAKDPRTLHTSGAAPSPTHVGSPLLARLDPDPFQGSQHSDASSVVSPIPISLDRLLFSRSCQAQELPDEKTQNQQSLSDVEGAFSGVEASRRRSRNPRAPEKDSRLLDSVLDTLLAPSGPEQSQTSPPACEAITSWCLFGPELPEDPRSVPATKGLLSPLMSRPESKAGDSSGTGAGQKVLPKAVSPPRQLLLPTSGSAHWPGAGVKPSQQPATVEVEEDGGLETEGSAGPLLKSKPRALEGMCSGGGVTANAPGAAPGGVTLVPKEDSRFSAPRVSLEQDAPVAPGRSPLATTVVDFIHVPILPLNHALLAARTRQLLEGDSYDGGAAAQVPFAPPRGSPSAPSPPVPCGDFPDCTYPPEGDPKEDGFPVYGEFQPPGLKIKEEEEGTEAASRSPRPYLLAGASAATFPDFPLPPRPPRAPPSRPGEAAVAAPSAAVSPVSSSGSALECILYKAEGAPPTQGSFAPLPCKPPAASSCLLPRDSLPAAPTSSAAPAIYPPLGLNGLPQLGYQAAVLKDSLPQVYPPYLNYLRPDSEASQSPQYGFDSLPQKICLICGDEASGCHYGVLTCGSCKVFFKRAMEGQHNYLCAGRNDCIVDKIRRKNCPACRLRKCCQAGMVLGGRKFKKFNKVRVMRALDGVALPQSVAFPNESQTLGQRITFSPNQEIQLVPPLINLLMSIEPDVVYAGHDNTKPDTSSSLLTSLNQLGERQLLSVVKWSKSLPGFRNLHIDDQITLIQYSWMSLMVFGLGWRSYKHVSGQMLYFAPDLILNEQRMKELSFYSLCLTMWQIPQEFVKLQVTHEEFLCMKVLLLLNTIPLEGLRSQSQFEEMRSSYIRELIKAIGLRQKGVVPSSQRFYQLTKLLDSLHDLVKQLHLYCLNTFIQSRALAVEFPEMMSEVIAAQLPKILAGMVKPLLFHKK
MEASUREMENT_DESCRIPTION: Inhibition of [3H]R5020 binding to rat uterine progesterone receptor relative to R5020

COMPOUND_SMILES | relative binding affinity (RBA)
C[C@]12CC[C@H]3[C@@H](CCC4=CC(=O)CC[C@@H]43)[C@@H]1C[C@H]1O[C@@H](c3ccco3)O[C@]12C(=O)CO | 55
C[C@]12CC[C@H]3[C@@H](CCC4=CC(=O)CC[C@@H]43)[C@@H]1C[C@H]1O[C@@H](c3ccco3)O[C@]12C(=O)CF | 190
C[C@]12CC[C@H]3[C@@H](CCC4=CC(=O)CC[C@@H]43)[C@@H]1C[C@H]1O[C@H](c3ccco3)O[C@]12C(=O)CO | 2.5
C[C@]12CC[C@H]3[C@@H](CCC4=CC(=O)CC[C@@H]43)[C@@H]1C[C@H]1O[C@H](c3ccco3)O[C@]12C(=O)CF | 11

----------
Items are presented alongside their recorded relative binding affinity (RBA).
TARGET_UNDER_TEST: Progesterone receptor (Homo sapiens)
MEASUREMENT_DESCRIPTION: Inhibition of [3H]R5020 binding to human recombinant progesterone receptor relative to R5020

COMPOUND_SMILES | relative binding affinity (RBA)
C[C@]12CC[C@H]3[C@@H](CCC4=CC(=O)CC[C@@H]43)[C@@H]1C[C@H]1O[C@@H](c3ccco3)O[C@]12C(=O)CF | 180
C[C@]12CC[C@H]3[C@@H](CCC4=CC(=O)CC[C@@H]43)[C@@H]1C[C@H]1O[C@@H](c3ccc(I)s3)O[C@]12C(=O)CO | 3.2
C[C@]12CC[C@H]3[C@@H](CCC4=CC(=O)CC[C@@H]43)[C@@H]1C[C@H]1O[C@@H](c3ccc(Br)s3)O[C@]12C(=O)CO | 5.2
C[C@]12CC[C@H]3[C@@H](CCC4=CC(=O)CC[C@@H]43)[C@@H]1C[C@H]1O[C@H](c3ccc(I)cc3)O[C@]12C(=O)CO | 1.8
C[C@]12CC[C@H]3[C@@H](CCC4=CC(=O)CC[C@@H]43)[C@@H]1C[C@H]1O[C@@H](c3ccc(Br)o3)O[C@]12C(=O)CO | 65
C[C@]12CC[C@H]3[C@@H](CCC4=CC(=O)CC[C@@H]43)[C@@H]1C[C@H]1O[C@@H](c3ccc(Br)o3)O[C@]12C(=O)CF | 24
C[C@]12CC[C@H]3[C@@H](CCC4=CC(=O)CC[C@@H]43)[C@@H]1C[C@H]1O[C@@H](c3ccc(I)o3)O[C@]12C(=O)CO | 23
C[C@]12CC[C@H]3[C@@H](CCC4=CC(=O)CC[C@@H]43)[C@@H]1C[C@H]1O[C@@H](c3ccc(Br)cc3)O[C@]12C(=O)CO | 23
C[C@]12CC[C@H]3[C@@H](CCC4=CC(=O)CC[C@@H]43)[C@@H]1C[C@H]1O[C@H](c3ccc(I)cc3)O[C@]12C(=O)CF | 34
C[C@]12CC[C@H]3[C@@H](CCC4=CC(=O)CC[C@@H]43)[C@@H]1C[C@H]1O[C@H](c3ccc(Br)cc3)O[C@]12C(=O)CO | 0.41
CC(=O)CC(=O)[C@@]12O[C@H](c3ccc(Br)o3)O[C@@H]1C[C@H]1[C@@H]3CCC4=CC(=O)CC[C@@H]4[C@H]3CC[C@@]12C | 7.1
C[C@]12CC[C@H]3[C@@H](CCC4=CC(=O)CC[C@@H]43)[C@@H]1C[C@H]1O[C@H](c3ccc(Br)o3)O[C@]12C(=O)CO | 2.3
C[C@]12CC[C@H]3[C@@H](CCC4=CC(=O)CC[C@@H]43)[C@@H]1C[C@H]1O[C@@H](c3ccco3)O[C@]12C(=O)CO | 53
C[C@]12CC[C@H]3[C@@H](CCC4=CC(=O)CC[C@@H]43)[C@@H]1C[C@H]1O[C@H](c3ccc(Br)o3)O[C@]12C(=O)CF | 4.4
C[C@]12CC[C@H]3[C@@H](CCC4=CC(=O)CC[C@@H]43)[C@@H]1C[C@H]1O[C@@H](c3ccc(Br)cc3)O[C@]12C(=O)CF | 3.9
CC(=O)CC(=O)[C@@]12O[C@@H](c3ccc(Br)o3)O[C@@H]1C[C@H]1[C@@H]3CCC4=CC(=O)CC[C@@H]4[C@H]3CC[C@@]12C | 1.4
C[C@]12CC[C@H]3[C@@H](CCC4=CC(=O)CC[C@@H]43)[C@@H]1C[C@H]1O[C@H](c3ccco3)O[C@]12C(=O)CF | 5
C[C@]12CC[C@H]3[C@@H](CCC4=CC(=O)CC[C@@H]43)[C@@H]1C[C@H]1O[C@H](c3ccc(I)s3)O[C@]12C(=O)CO | 0.95
C[C@]12CC[C@H]3[C@@H](CCC4=CC(=O)CC[C@@H]43)[C@@H]1C[C@H]1O[C@H](c3ccc(Br)s3)O[C@]12C(=O)CO | 1.7
C[C@]12CC[C@H]3[C@@H](CCC4=CC(=O)CC[C@@H]43)[C@@H]1C[C@H]1O[C@H](c3ccc(I)o3)O[C@]12C(=O)CO | 2.6
C[C@]12CC[C@H]3[C@@H](CCC4=CC(=O)CC[C@@H]43)[C@@H]1C[C@H]1O[C@H](c3ccco3)O[C@]12C(=O)CO | 2.4
C[C@]12CC[C@H]3[C@@H](CCC4=CC(=O)CC[C@@H]43)[C@@H]1C[C@H]1O[C@H](c3ccc(I)o3)O[C@]12C(=O)CF | 9
C[C@]12CC[C@H]3[C@@H](CCC4=CC(=O)CC[C@@H]43)[C@@H]1C[C@H]1O[C@@H](c3ccc(I)cc3)O[C@]12C(=O)CO | 0.81
C[C@]12CC[C@H]3[C@@H](CCC4=CC(=O)CC[C@@H]43)[C@@H]1C[C@H]1O[C@@H](c3ccc(I)cc3)O[C@]12C(=O)CF | 6.4
C[C@]12CC[C@H]3[C@@H](CCC4=CC(=O)CC[C@@H]43)[C@@H]1C[C@H]1O[C@H](c3ccc(Br)cc3)O[C@]12C(=O)CF | 4.7
C[C@]12CC[C@H]3[C@@H](CCC4=CC(=O)CC[C@@H]43)[C@@H]1C[C@H]1O[C@@H](c3ccc(I)o3)O[C@]12C(=O)CF | 40
